STUDY TARGET: Grb2 SH2 (UniProt P62993)
TEST METHOD NOTES: SH2 binding enrichment of the phosphorylated peptide, bacterial display (enrichment ratio); higher = better substrate or ligand; peptides without Tyr show the background
MEASUREMENT NAME: SH2 binding enrichment

>>> readout_number("FGSLLYKFAFK [FANCD2_Y458_YF]")
0.983

I: ELTTCYRKKCC [CCBE1_Y70]
II: DFPMGYPSFLA [TBCK_Y153_I151M_YF]
From the items above, decide which of I and II has the lower SH2 binding enrichment reading. Your choice should be expressed through its label.
II

----------
STUDY TARGET: MERTK (UniProt Q12866)
Sequence (Q12866 whole entry, looked up): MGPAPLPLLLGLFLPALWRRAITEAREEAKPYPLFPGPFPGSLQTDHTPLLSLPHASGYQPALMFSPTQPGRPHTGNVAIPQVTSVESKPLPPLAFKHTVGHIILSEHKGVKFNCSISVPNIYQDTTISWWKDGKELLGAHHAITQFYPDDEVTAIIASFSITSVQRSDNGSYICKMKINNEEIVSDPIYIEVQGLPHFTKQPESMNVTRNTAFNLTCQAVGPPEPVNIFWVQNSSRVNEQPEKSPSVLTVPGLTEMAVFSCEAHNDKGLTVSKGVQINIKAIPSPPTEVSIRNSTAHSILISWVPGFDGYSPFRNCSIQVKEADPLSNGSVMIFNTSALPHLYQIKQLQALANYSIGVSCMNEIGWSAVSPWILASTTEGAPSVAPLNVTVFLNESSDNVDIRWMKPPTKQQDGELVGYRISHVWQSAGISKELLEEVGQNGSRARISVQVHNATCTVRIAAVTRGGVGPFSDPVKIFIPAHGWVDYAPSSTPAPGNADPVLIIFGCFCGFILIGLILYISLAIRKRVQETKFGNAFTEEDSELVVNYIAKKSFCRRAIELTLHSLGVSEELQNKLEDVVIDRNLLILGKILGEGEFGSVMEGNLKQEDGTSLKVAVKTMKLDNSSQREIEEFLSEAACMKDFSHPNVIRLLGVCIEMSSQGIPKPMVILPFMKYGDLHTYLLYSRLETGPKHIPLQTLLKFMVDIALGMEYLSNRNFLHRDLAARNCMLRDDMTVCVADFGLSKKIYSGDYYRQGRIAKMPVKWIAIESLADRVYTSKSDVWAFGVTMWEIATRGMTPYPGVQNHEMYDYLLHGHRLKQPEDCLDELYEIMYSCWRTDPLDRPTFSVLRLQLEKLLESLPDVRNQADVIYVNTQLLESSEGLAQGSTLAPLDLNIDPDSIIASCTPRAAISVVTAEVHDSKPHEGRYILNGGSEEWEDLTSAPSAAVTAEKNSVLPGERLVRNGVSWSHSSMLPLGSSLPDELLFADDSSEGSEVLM
TEST METHOD NOTES: phosphorylation enrichment, bacterial display (enrichment ratio); higher = better substrate or ligand; peptides without Tyr show the background
MEASUREMENT NAME: phosphorylation enrichment
Enter a number only.

What phosphorylation enrichment value was documented for this sequence, SLVGCYNLTFM [HS6ST3_Y323] ?
0.498

Reported phosphorylation enrichment for LWQSIYNLEAE [TNNT2_Y251] : what is it?
0.664

I am curious: what phosphorylation enrichment value has been reported for KGELRYMHSPV [ABCD1_Y281_R285P] ?
0.406

Tell me the measured phosphorylation enrichment of LVSCTYQLARG [FGFR2_Y608] , please.
0.443

For ASYGPNTRVQS [FOXL2_Y258_Y258N] , what is its reported phosphorylation enrichment?
0.435

----------
STUDY TARGET: Fyn (UniProt P06241)
Sequence (P06241 whole entry, looked up): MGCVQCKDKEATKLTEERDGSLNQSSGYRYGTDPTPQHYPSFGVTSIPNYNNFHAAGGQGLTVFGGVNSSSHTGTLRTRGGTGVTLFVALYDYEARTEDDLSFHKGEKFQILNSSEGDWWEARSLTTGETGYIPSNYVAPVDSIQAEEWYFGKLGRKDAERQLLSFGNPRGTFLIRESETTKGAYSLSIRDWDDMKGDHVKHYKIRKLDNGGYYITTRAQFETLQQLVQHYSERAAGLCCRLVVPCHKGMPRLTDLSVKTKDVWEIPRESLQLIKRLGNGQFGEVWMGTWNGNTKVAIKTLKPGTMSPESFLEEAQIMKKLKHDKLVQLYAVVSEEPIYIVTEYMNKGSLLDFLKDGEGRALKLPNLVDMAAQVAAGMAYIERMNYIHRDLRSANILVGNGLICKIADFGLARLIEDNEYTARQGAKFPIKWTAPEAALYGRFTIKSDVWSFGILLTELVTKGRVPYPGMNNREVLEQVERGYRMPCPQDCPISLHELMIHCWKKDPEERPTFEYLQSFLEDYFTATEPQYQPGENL
TEST METHOD NOTES: phosphorylation enrichment, bacterial display (enrichment ratio); higher = better substrate or ligand; peptides without Tyr show the background
MEASUREMENT NAME: phosphorylation enrichment
// keep it numeric: no unit symbol after the value

>>> readout_number("QTWKTYVRHQQ [SFI1_Y164_Q167H]")
0.476
>>> readout_number("SLVGCYNLTFM [HS6ST3_Y323]")
0.694

Entry under review: SGSIHYSCVPR [GLB1_Y57_R59C] . Reported phosphorylation enrichment?
0.474

phosphorylation enrichment for YAGRDYSLDEF [MYOF_Y1705_G1701A] ?
0.595

Fill blank: measured phosphorylation enrichment of the sequence LWQSIYNLEAE [TNNT2_Y251] is ____.
12.4

What measured phosphorylation enrichment goes with PATINYPFEKG [NDUFS8_Y84] ?
1.04

I would be grateful if you could share the reported phosphorylation enrichment for PNATLYKMSSI [SERPINA7_Y40] .
0.35

Looking for the measured phosphorylation enrichment of SVTCTYSPAVN [TP53_Y126_L130V] , can you help?
0.58

Look at this sequence and give its reported phosphorylation enrichment. FFRCHYPLTTL [TNS4_Y644_R642C]
0.374

Requested read-out: phosphorylation enrichment. Entry: TDIVAYSGRVQ [SPTBN2_Y477]
1.05

Return reported phosphorylation enrichment; argument: KPRKPYTIKKP [BRD2_Y715]
0.608

Would you kindly share the measured phosphorylation enrichment for GGFTRYCDGKK [PROS1_Y266_C265R_YF] ?
0.368

What does the record list as phosphorylation enrichment for YSGDCYRIQGR [DDR2_Y741_Y740C] ?
0.475

// returns reported phosphorylation enrichment for input FADIAYNYRHG [PAH_Y166]
0.423

Given the entry QTEAPYRFIFM [PTPN11_Y511_Q510P_YF] , report its measured phosphorylation enrichment.
0.637

Bench note: what phosphorylation enrichment did EVASVYESFQP [MAVS_Y92_Q93E_YF] show?
11.2

May I ask what phosphorylation enrichment has been recorded for YIRKDYEACKA [BBS4_Y48] ?
0.445

For the sequence shown here, GLSDPYVKIHL [SYT2_Y309] , give the reported phosphorylation enrichment.
0.458

I'd like to know its phosphorylation enrichment. The sequence in question is SHNELYYEAAE [VANGL1_Y344_E347A]
0.986
